# test-details: Displacement of [3H]-flumazenil from benzodiazepine receptor in Sprague-Dawley rat brain cortical membranes incubated for 35 mins
Measured pKi accompanies every entry in the list below.
Please treat pKi as minus the base-10 logarithm of the molar concentration.

Consider the following illustrative entries.
Cc1cc(=O)n2nc(-c3ccccc3)n(Cc3ccc(F)cc3)c2n1 = 9.01
Cc1cc(=O)n2nc(-c3ccccc3)n(Cc3ccccc3)c2n1 = 8.84
CN1C(=O)CN=C(c2ccccc2)c2cc(Cl)ccc21 = 8.82
Nc1nnc(-c2ccccc2)n1Cc1ccccc1Cl = 8.86
Cc1cc(=O)n2nc(-c3ccccc3)n(Cc3ccccc3Cl)c2n1 = 9.38

Entry under review: Nc1nnc(-c2ccccc2)n1Cc1ccccc1 . Reported pKi?
9.28

Entry under review: Nc1nnc(-c2ccccc2)n1Cc1ccc(F)cc1 . Reported pKi?
8.56
